target: Isocitrate dehydrogenase [NADP] cytoplasmic (Homo sapiens, UniProt O75874, R132C)
Sequence (O75874 2-414 R132C limits assumed): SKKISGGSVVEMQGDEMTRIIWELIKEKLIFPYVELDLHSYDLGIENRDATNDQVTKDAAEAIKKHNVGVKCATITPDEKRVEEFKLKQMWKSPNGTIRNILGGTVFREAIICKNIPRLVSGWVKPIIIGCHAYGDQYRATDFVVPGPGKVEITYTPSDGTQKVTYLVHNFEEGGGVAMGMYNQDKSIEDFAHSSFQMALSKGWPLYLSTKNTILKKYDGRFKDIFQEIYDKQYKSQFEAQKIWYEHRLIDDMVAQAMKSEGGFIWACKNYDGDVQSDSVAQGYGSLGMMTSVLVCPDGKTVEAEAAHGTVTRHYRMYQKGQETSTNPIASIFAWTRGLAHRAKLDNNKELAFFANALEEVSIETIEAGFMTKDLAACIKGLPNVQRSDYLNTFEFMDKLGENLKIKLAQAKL
experiment-notes: Inhibition of human C-terminal His8-tagged IDH1-R132C mutant expressed in Escherichia coli Rosetta assessed as inhibition of ketoreductase activity by measuring NADPH consumption preincubated for 10 mins followed by addition of NADPH and alpha-KG as substrate by fluorescence method
measure-name: IC50 (nM)
Expressed in nM, but write only the number.

Please list IC50 recorded for the compound "C[C@@H]1CN([C@@H](C)CO)S(=O)(=O)c2ccc(C#Cc3cccc(F)c3)cc2O[C@H]1CN(C)C(=O)NC1CCCCC1"
2500

* * *

experiment-notes: Protein binding in mouse plasma at 5 uM measured after 5 hrs by rapid equilibrium dialysis method
Assay type: ADME, cell-free
test-settings: read-out: PPB (converted)
measure-name: fraction unbound at 5 h, 5 µM
API note: the answer field is a bare number with no unit suffix.

Provide fraction unbound at 5 h, 5 µM value for the following compound: "C[C@@H]1CN([C@@H](C)CO)S(=O)(=O)c2ccc(C#Cc3cccc(F)c3)cc2O[C@H]1CN(C)C(=O)NC1CCCCC1"
0.037
